FYI, the data here is from paper PMC11396129.

# Tested on: A498
# Test details: NCI 60 panel growth inhibition (SRB), renal cancer
# Format: cell-based, human
# Protocol conditions: A498, 10 μM
Recorded metric: GI%

Q: Please supply the value of reported GI% for the item COc1cccc(-c2nc3ccccc3s2)c1OCC(=O)NN=C1C(=O)Nc2ccccc21 [Compound 9g]
Ans: – (GI% < 5%)

Q: Please supply the value of reported GI% for the item COc1ccc(-c2nc3ccccc3s2)cc1OCC(=O)NN=C1C(=O)Nc2ccccc21 [Compound 9m]
Ans: – (GI% < 5%)

Q: Please supply the value of reported GI% for the item COc1ccc(-c2nc3ccccc3s2)cc1OCC(=O)NN=C1C(=O)Nc2ccc(C)cc21 [Compound 9n]
Ans: – (GI% < 5%)

Q: Please supply the value of reported GI% for the item COc1cccc(-c2nc3ccccc3s2)c1OCC(=O)NN=C1C(=O)Nc2ccc([N+](=O)[O-])cc21 [Compound 9j]
Ans: – (GI% < 5%)

Q: Please supply the value of reported GI% for the item COc1ccc(-c2nc3ccccc3s2)cc1OCC(=O)NN=C1C(=O)Nc2ccc(Cl)cc21 [Compound 9q]
Ans: – (GI% < 5%)

Give me GI% for each of these molecules, listed below.
1. Cc1ccc2c(c1)C(=NNC(=O)COc1ccccc1-c1nc3ccccc3s1)C(=O)N2 [Compound 9b]
2. O=C(COc1ccccc1-c1nc2ccccc2s1)NN=C1C(=O)Nc2ccccc21 [Compound 9a]
3. COc1ccc2c(c1)C(=NNC(=O)COc1cc(-c3nc4ccccc4s3)ccc1OC)C(=O)N2 [Compound 9o]
4. O=C(COc1ccccc1-c1nc2ccccc2s1)NN=C1C(=O)Nc2ccc(Br)cc21 [Compound 9f]
5. COc1cccc(-c2nc3ccccc3s2)c1OCC(=O)NN=C1C(=O)Nc2ccc(C)cc21 [Compound 9h]
6. COc1ccc2c(c1)C(=NNC(=O)COc1c(OC)cccc1-c1nc3ccccc3s1)C(=O)N2 [Compound 9i]
7. COc1ccc2c(c1)C(=NNC(=O)COc1ccccc1-c1nc3ccccc3s1)C(=O)N2 [Compound 9c]
8. O=C(COc1ccccc1-c1nc2ccccc2s1)NN=C1C(=O)Nc2ccc(Cl)cc21 [Compound 9e]

Ans:
5.48%
– (GI% < 5%)
– (GI% < 5%)
12.61%
– (GI% < 5%)
– (GI% < 5%)
– (GI% < 5%)
– (GI% < 5%)

Q: Please supply the value of reported GI% for the item COc1ccc(-c2nc3ccccc3s2)cc1OCC(=O)NN=C1C(=O)Nc2ccc(Br)cc21 [Compound 9r]
Ans: – (GI% < 5%)
